FYI, the data here is from patent US5641758A.

System: CCRF-CEM
Assay: MTT dye reduction cytotoxicity assay, CCRF-CEM
Assay type: cell-based
Conditions: Homo sapiens, MTT assay, read-out: IC50
test-readout: IC50 (µM)

test_smiles=CCCCCCCCCCCCCCCCCCNc1ccn([C@@H]2O[C@H](CO)[C@@H](O)[C@@H]2O)c(=O)n1 reported_result=50

----------
Test: Toxicity (lethality, maximal tolerated dose) in tumor-bearing nude mice, i.p.
Conditions: mouse, in vivo, ip, days 1,4,7 and 10, tumor-bearing nude mice
test-readout: MTD (mg/kg/day)

test_smiles=CCCCCCCCCCCCCCCCCCNc1ccn([C@@H]2O[C@H](CO)[C@@H](O)[C@@H]2O)c(=O)n1 test_readout=MTD unit_annotation=mg/kg/day reported_result=150
